Target entity: VRC01-resistant viruses
Assay details: cell-based or functional assay
Reported metric: fold decrease in neutralization (IC50 of antibody mutant/IC50 of antibody WT) (fold)

Binder | Quantity unit | Value measured
N6 VRC27CDRH3 (antibody, V domains shown) VH: RAHLVQSGTAMKKPGASVRVSCQTSGYTFTAHILFWFRQAPGRGLEWVGWIKPQYGAVNFGGGFRDRVTLTRDVYREIAYMDIRGLKPDDTAVYYCARDRLYDGSSWRLDPWGQGTTVVVSA VL: YIHVTQSPSSLSVSIGDRVTINCQTSQGVGSDLHWYQHKPGRAPKLLIHHTSSVEDGVPSRFSGSGFHTSFNLTISDLQADDIATYYCQVLQFFGRGSRLHIK | fold | 10
N6 Y54GHC (antibody, V domains shown) VH: RAHLVQSGTAMKKPGASVRVSCQTSGYTFTAHILFWFRQAPGRGLEWVGWIKPQGGAVNFGGGFRDRVTLTRDVYREIAYMDIRGLKPDDTAVYYCARDRSYGDSSWALDAWGQGTTVVVSA VL: YIHVTQSPSSLSVSIGDRVTINCQTSQGVGSDLHWYQHKPGRAPKLLIHHTSSVEDGVPSRFSGSGFHTSFNLTISDLQADDIATYYCQVLQFFGRGSRLHIK | fold | 32
N6 VRC27CDRH2 (antibody, V domains shown) VH: RAHLVQSGTAMKKPGASVRVSCQTSGYTFTAHILFWFRQAPGRGLEWVGWIKPKFGAVNYAHSFQGRVTLTRDVYREIAYMDIRGLKPDDTAVYYCARDRSYGDSSWALDAWGQGTTVVVSA VL: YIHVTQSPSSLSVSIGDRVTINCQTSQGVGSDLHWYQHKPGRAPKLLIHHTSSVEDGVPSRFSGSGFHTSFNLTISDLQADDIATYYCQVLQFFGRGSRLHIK | fold | 78
N6 GGG60-62ARPHC (antibody, V domains shown) VH: RAHLVQSGTAMKKPGASVRVSCQTSGYTFTAHILFWFRQAPGRGLEWVGWIKPQYGAVNFARPFRDRVTLTRDVYREIAYMDIRGLKPDDTAVYYCARDRSYGDSSWALDAWGQGTTVVVSA VL: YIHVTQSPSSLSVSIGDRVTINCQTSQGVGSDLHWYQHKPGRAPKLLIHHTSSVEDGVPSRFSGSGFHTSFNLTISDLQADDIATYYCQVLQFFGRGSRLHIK | fold | 14
